- System: CEM cells HIV-1 protection, formazan growth assay
- assay_info: NCI AIDS Antiviral Assay;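 active = compounds giving half or more protection of infected cells from virus-caused growth loss, again on retest; inactive = the rest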
Where a SMILES comes first, the peptide text is derived from it. The star is where a group is joined. OSu = O=C1CCC(=O)N1O*
Outcome field: choose from active, inactive

compound	test_target	assigned_label
CO[C@@H]1O[C@H](C(=O)c2ccccc2)[C@H]2OC(C)(C)O[C@@H]12	CEM cells HIV-1 protection, formazan growth assay	inactive

Q. Entry NCCCCC(NC(=O)C(N)Cc1ccc(O)cc1)C(=O)NC(CCCCN)C(=O)NC(CCCCN)C(=O)ON1C(=O)CCC1=O (stereo not given) (H-YKKK-OSu; configuration not given here) : call = ?
A. active

Q. Just curious, what result did `CCN(c1cccc(NC(=S)Nc2ccccc2N(CC)c2cc(-c3ccccc3)no2)c1)c1cc(-c2ccccc2)no1` get here?
A. inactive

Q. Look up the recorded call for `CN1C(C(=O)Nc2nccs2)=C(O)c2ccccc2S1(=O)=O` in this test.
A. inactive

====

Measured EC50 accompanies every entry in the list below.
- System: CEM cells HIV-1 protection, formazan growth assay
- assay_info: NCI AIDS Antiviral Assay

Worked set:
>>> df
                         chemical_smiles  measurement_name  measurement
0     C=Cc1cncc(C#N)c1CCc1c(C#N)cncc1C=C              EC50    > 34.7 µM
1  C/C(=N\NS(=O)(=O)c1ccc(C)cc1)c1ccccn1              EC50     > 200 µM
2              CCOC(=O)/C=C/c1ccc(Br)cc1              EC50    > 28.2 µM

Q. EC50 of `C[Si](C)(C)CCCS(=O)(=O)O` on CEM cells HIV-1 protection, formazan growth assay?
A. > 200 µM

Q. Request body: readout EC50, system CEM cells HIV-1 protection, formazan growth assay, query `CCCN=C(N)NC#N` . Return the value.
A. > 708 µM

Q. Param readout = EC50; param system = CEM cells HIV-1 protection, formazan growth assay; param query = `O=C1C=C(c2c(O)ccc3ccccc23)c2cc(O)ccc2C1=O` ; response: value
A. > 112 µM

Q. Recall the recorded EC50 for `Nc1ccc2c(c1)S(=O)(=O)c1cc(N)ccc1-2` with CEM cells HIV-1 protection, formazan growth assay and state it.
A. > 200 µM

====

Listing of recorded IC50 by entry.
- System: CEM cells HIV-1 protection, formazan growth assay
- assay_info: NCI AIDS Antiviral Assay
- measurement_context: measured here: growth of uninfected CEM cells
Use µM as the unit, but write only the number.

Answered examples (2):
                            chemical_smiles                               test_target  measurement
0  O=C1/C(=C/c2ccc(Cl)c(Cl)c2)CN(C(=O)CCN2CCOCC2)C/C1=C\c1ccc(Cl)c(Cl)c1  CEM cells HIV-1 protection, formazan growth assay         0.12
1      OC(COc1ccc2ccccc2c1)COc1ccc2ccccc2c1  CEM cells HIV-1 protection, formazan growth assay          138

Q. Which IC50 reading was recorded for the compound `Cc1nc(-c2ccc([N+](=O)[O-])cc2)cn2c1nc1ccccc12` ?
A. 501

Q. I would be grateful if you could share the reported IC50 for `CCCCC1(NN=C2CCCCC2)C(=O)N(c2ccccc2)N(c2ccccc2)C1=O` .
A. 102

Q. # lookup: IC50 of `Oc1ccc(/C=N/c2nccs2)c(O)c1`
A. 138

====

- System: CEM cells HIV-1 protection, formazan growth assay
- assay_info: NCI AIDS Antiviral Assay
- measurement_context: measured here: growth of uninfected CEM cells
Reported pIC50 by item:
Bear in mind: pIC50 is minus log10 of a mol/L concentration; give just that figure.

In the examples that follow, each entry is paired with its recorded pIC50.
                                   molecule  measurement
0  COc1cc(/C=C/c2nc(NC(=S)Nc3ccccc3)nnc2C)cc(OC)c1OC         4.86
1  O=C(NCCCN1CCN(CCCNC(=O)c2ccc(N=Nc3ccccc3)cc2)CC1)c1ccc(N=Nc2ccccc2)cc1         4.27
2  COCOC1/C=C/CCCCC(=O)C(C)C#CC1 (stereo unspecified)         5.14
3  OCC1c2ccccc2-n2nc(-c3ccccc3)c(O)c21 (stereo unspecified)         5.48

Turning now to a further molecule:
Q. Recorded pIC50 for CC(C(O)c1ccccc1)C(O)(C(F)(F)F)C(F)(F)F (stereo unspecified) , please?
A. 4.02

====

- Tested on: CEM cells HIV-1 protection, formazan growth assay
- assay_info: NCI AIDS Antiviral Assay
- measurement_context: measured here: growth of uninfected CEM cells
IC50 overview

compound	measurement_name	measurement
CCCCN(CCCC)C(=S)S	IC50	> 200 µM

Q. Value lookup for IC50; key = `CC(C)=CC(=O)N1CCN(C(=O)C=C(C)C)CC1`
A. > 501 µM

Q. Suppose we examine the compound `Nc1cc(-c2ccccc2)nn1-c1nsc2ccccc12` ; what IC50 value has been reported?
A. > 17.8 µM

Q. Would you mind telling me what IC50 value was observed for `COC(=O)CCCc1ccc2c(c1)CC1(Cc3ccccc3C1)C2` ?
A. > 200 µM

Q. Find the recorded IC50 belonging to C=C(NC(=O)C(=C)NC(=O)c1ccc2c(n1)-c1coc(n1)C(=C)NC(=O)C(=C)NC(=O)c1nc(oc1C)C(=C)NC(=O)C(C(C)(C)O)NC(=O)C(=C)NC(=O)c1coc(n1)/C(=C/C)NC(=O)[C@H]([C@@H](C)O)NC(=O)c1csc-2n1)C(N)=O (stereo partly specified) and report it.
A. > 100 µM

Q. Can you look up the measured IC50 of CC(C)N(C(C)C)[PH+]1O[PH+](N(C(C)C)C(C)C)O[PH+](N(C(C)C)C(C)C)O[PH+](N(C(C)C)C(C)C)O1.[C-]#[O+].[C-]#[O+].[C-]#[O+].[C-]#[O+].[C-]#[O+].[C-]#[O+].[C-]#[O+].[C-]#[O+].[Mo].[Mo] (stereo unspecified) for me?
A. > 35.5 µM

Q. Need IC50, item `C/C(=N\NC(=S)Nc1ccc(S(N)(=O)=O)cc1)c1ccccn1`
A. 8.51 µM

====

- Test system: CEM cells HIV-1 protection, formazan growth assay
- assay_info: NCI AIDS Antiviral Assay;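 active = compounds giving half or more protection of infected cells from virus-caused growth loss, again on retest; inactive = the rest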
Select the matching outcome among t for active, f for inactive

>>> df
                      compound                               test_target  assigned_label
0  [O-][n+]1onc2c1/C(=N/O)CCC2  CEM cells HIV-1 protection, formazan growth assay               f

Q. Write down the call the test reported for this compound. Item: `Cc1cccc(Nc2ccccc2C(=O)O)c1C`
A. f

Q. Per the records of this test, what outcome belongs to `CC1=CC(C)(C)Nc2ccccc2N1` ?
A. f

Q. For `O=C(C(=O)c1ccc(Cc2ccc(C(=O)C(=O)c3ccccc3)cc2)cc1)c1ccccc1` , what call appears in the results of this test?
A. f

Q. Which result was noted for this compound in the test: O=C1C2=C(c3ccccc31)C(c1cccc(Cl)c1)NC(=S)N2 (stereo unspecified)
A. f

Q. Called result for C=C(C)CC1(O)C(=O)C(OCC)=C1OCC (stereo unspecified)
A. f

Q. Just curious, what result did `O=C(NCCCCN1CCCCCC1)C1c2ccccc2-c2ccccc21` get here?
A. f

====

- Test system: CEM cells HIV-1 protection, formazan growth assay
- assay_info: NCI AIDS Antiviral Assay
- measurement_context: measured here: growth of uninfected CEM cells
Lab note: cut-off is 20 µM. Strictly less in IC50 is met. Exactly 20 µM or more is not met.

For orientation, consider the following solved cases.
>>> df
                                   compound  assigned_label
0  CN1C(=O)C2CC(O)C(SC3CC4C(=O)N(C)C(=O)C4CC3O)CC2C1=O (centres undefined)         not met
1  Cn1ccnc1.Cn1ccnc1.Cn1ccnc1.Cn1ccnc1.[O-][Cl+3]([O-])([O-])[O-].[Pt+2]         not met

Q. Please indicate whether the reported IC50 of COc1cc(C)c2c(c1C=O)Oc1c(c(C)c(O)c3c1C(O)OC3=O)OC2=O (centres undefined) is strictly below 20 µM.
A. not met

Q. Given `Cc1oc(C)c2c1C(=O)N(C)C2=O` , is recorded IC50 strictly lower than 20 µM?
A. not met

Q. Consider CC1=NN2C(=O)C(C)SC2=NC(C)(C)C1 (centres undefined) . Does its IC50 lie strictly below 20 µM?
A. not met

Q. Item `CN(C)c1ccc(C(c2c(O)c3ccc(O)cc3oc2=O)c2c(O)c3ccc(O)cc3oc2=O)cc1` : IC50 beneath 20 µM, strictly?
A. not met

Q. Does `NN1CCc2ccccc2C1` have IC50 strictly under 20 µM?
A. not met

Q. Criterion: IC50 strictly below 20 µM. Is it met by `Nc1ccc2oc3cccnc3c2c1` ?
A. not met

Q. Record `Cc1ccc(S(=O)(=O)NCCN(CCNS(=O)(=O)c2ccc(C)cc2)S(=O)(=O)c2ccc(C)cc2)cc1` : is its IC50 strictly below 20 µM?
A. not met

Q. # TODO verify IC50 < 20 µM strictly for this compound: `CCN(CC)C(=S)N/N=C(/C)c1cccc(/C(C)=N\NC(=S)N(CC)CC)n1`
A. met

Q. In the record for COC(=O)C12CCC(C(F)(F)C1=O)C2(C)C (centres undefined) , is IC50 less than 20 µM?
A. not met

Q. In plain terms, does `CCOC(=O)C(C)(C)Oc1ccc2c(=O)cc(-c3ccccc3)oc2c1` come in under 20 µM for IC50?
A. not met

Q. Check if IC50 falls below 20 µM for CC(=O)O[C@]12CCCCCC1C1(O)C(O)CCC[C@H]12 (some centres undefined) .
A. not met

Q. IC50 under 20 µM? Item: `Cc1cc(S(=O)(=O)N2CCNNC2=O)c(S)cc1Cl`
A. not met

Q. Determine whether this compound shows IC50 lower than 20 µM (ties excluded): N/C(=N\C(O)C(Cl)(Cl)Cl)SCNC(=O)NCS/C(N)=N/C(O)C(Cl)(Cl)Cl (centres undefined)
A. not met

Q. I'd appreciate it if you could check whether `CCCCCOC(=O)c1cccc(NC(=O)CN(CC)CC)c1` has IC50 smaller than 20 µM.
A. not met

Q. In the record for `CC1(C)[C@@H]2CC[C@]13CC(=O)O[C@@H]3C2` , is IC50 less than 20 µM?
A. not met

Q. Regarding O=C1CSC(c2ccc([N+](=O)[O-])cc2)N1c1ccc(-n2c(-c3ccccc3)nc3ccccc3c2=O)cc1 (centres undefined) , kindly confirm whether its IC50 is beneath 20 µM.
A. not met

Q. Does O=S1(=O)CC2OC(c3ccccc3)OC2C1 (centres undefined) have IC50 strictly under 20 µM?
A. not met

Q. Problem: For the compound `C=C1c2nc3ccccc3n2C=C(c2ccc(C)cc2)N1c1ccc(C)cc1` , is IC50 under 20 µM?
A. not met

Q. Below 20 µM on IC50? Entry COc1cc(N)c2c(c1)SC(C)C(=O)N2 (centres undefined)
A. not met
